experiment: pKa of the conjugate acid of the enolate anion (acid/base titration or UV absorption method); assay type: physicochemical; conditions: mixed solvent of THF/water=3/2
MEASURE: pKa
Answers are plain numbers.

Some molecules with recorded pKa:
# STRUCTURE STRING, pKa
records = [
    ("CCCCCCCCCCCCCCCc1cccc(CCCN2C(=O)/C(=C\\O)c3ccccc32)c1", 6.3),
    ("CCCCCCCCCCCCNc1ccc(N2C(=O)/C(=C\\O)N=C2C(F)(F)F)cc1", 3.1),
]

Then there is this molecule:
Challenge: // query pKa value for entry O=C1/C(=C/O)N=C(c2cc(C(F)(F)F)cc(C(F)(F)F)c2)N1c1ccc(Cl)cc1
Response given: 3.8
